# study.system: human recombinant MC5R (CHO-K1/Ga15 stable cell line, GenScript) (human, UniProt P33032 1-325)
# Sequence (P33032 whole entry): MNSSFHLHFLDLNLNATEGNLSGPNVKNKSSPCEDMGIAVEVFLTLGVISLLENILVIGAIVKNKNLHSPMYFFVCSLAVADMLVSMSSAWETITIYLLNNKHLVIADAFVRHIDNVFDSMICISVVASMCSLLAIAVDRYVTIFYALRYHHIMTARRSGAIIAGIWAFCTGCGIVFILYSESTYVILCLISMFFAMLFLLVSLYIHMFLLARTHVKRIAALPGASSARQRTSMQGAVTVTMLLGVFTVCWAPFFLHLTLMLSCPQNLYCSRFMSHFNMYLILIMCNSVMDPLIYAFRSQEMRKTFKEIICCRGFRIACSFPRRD
# measurement.protocol: cell-based or functional assay
Starred links: 1 amine or outer side, 2 acyl side, 3 side chain; linkers in the order of their positions; H or OH if unused. Positions of bridges follow the written chain, without caps; N, C: chain ends. Non-standard residues stand in square brackets, D forms with d. *: point of attachment. HyPA = 3,5-dihydroxyphenylacetic acid (N-terminal cap), O=C(Cc1cc(O)cc(O)c1)*; MoPA = (3-methoxyphenyl)acetic acid (N-terminal cap), COc1cccc(CC(=O)*)c1; Lys(N3) = [N-]=[N+]=NCCCC[C@H](N)C(=O)O; mXylylene = c1cc(C[*:1])cc(C[*:2])c1; S5 = C=CCCC[C@](C)(N)C(=O)O; Nle = CCCC[C@H](N)C(=O)O; Pra = C#CC[C@H](N)C(=O)O

{"binder": "XXHFRWX (Ac-Nle-[Dab(N3)-His-DPhe-Arg-Trp-Dab(N3)] linkr: 3,3′-Oxybis[1-propyne]-NH2) [KR-042]", "unit.abbreviation": "nM", "MC5R IC50": 237}
{"binder": "Ac-[Nle][S5]H[dF]RW[S5]-NH2 (staple 2-7) [KR-039]", "unit.abbreviation": "nM", "MC5R IC50": 739}
{"binder": "{MoPA-MoPA}-[Nle][Lys(N3)]H[dF]RW[Pra]K-NH2 (triazole 2-7; not fully specified; printed as MoPA-MoPA-Nle-[Lys(N3)-His-DPhe-Arg-Trp-Pra]-Lys-NH2) [KR-063]", "unit.abbreviation": "nM", "MC5R IC50": 99.6}
{"binder": "HyPA-[Nle][Lys(N3)]H[dF]RW[Pra]K-NH2 (triazole 2-7; not fully specified; printed as HyPA-Nle-[Lys(N3)-His-DPhe-Arg-Trp-Pra]-Lys-NH2) [KR-062]", "unit.abbreviation": "nM", "MC5R IC50": 167}
{"binder": "Ac-[Nle]CH[dF]RWC-NH2 (linker 2-7 via mXylylene) [KR-040]", "unit.abbreviation": "nM", "MC5R IC50": 257}
